Measured IC50 [pM] for RSV A2 Neutralization, Trial 1 values are reported for all entries that follow.
- TESTED TARGET: RSV-F of RSV subtype A strain A2 (1540) (respiratory syncytial virus subtype A, …, UniProt P03420 26-574)
- METHOD DESCRIPTION: cell-based or functional assay

Past entries and their recorded results:
H1H3581P (antibody, V domains shown) VH: EVQLVESGGGLVHPGGSLRLSCEASGFTLSSHVMSWVRQVPGKGLEWVSRISGPGGSTKYADSVQGRFTTSRDNSKNTLYLQMNSLIAEDSAAYYCAKGGGYSGYDWDFYYGMDVWGQGTTVTVSS VL: DIQMTQSPSSVSASVGDRVTITCRASQGISSWLAWYQQKPGKAPKLLIYAASSLQSGVPSRFSGSGSGTDFTLTISSLQPEDFATYYCQQTNSFPLTFGGGTKVDIK
> 10000 pM
H1M3624N (antibody, V domains shown, also called H1M2634N) VH: QVQLEQSGAEVKKPGTSVRISCKASGDIFTGYYMNWVRQAPGQGLEWMGWINTNSGGTYFSQRFQGRVTLTRDTSIRTAYMELSRLRSDDTAVYYCARMFYDILTGSDVFDIWGQGTMVTVSS VL: DIQMTQSPSSLSASVGDRVTITCRASQDIRNDLGWYHQKPGKAPKCLIYGASSLQSGVPSRFSGSGSGTEFTLTISSLQPEDFATYYCLQHKNYMYTFGQGTKLEIK
540 pM
H1H3603P (antibody, V domains shown) VH: QVQLQESGPGLVKPSETLSLTCTVSGGSISGYYWTWIRQPPGKGLEWIGYIYYSGATNYNPSLKSRVTISLDTSKNQFSLKLSSVTAADTAVYYCARDGNYDILTGYYNYHYYGMDVWGQGTTVTVSS VL: DIQMTQSPSSLSASVGDRVTITCRASQDIGNYLAWFQQKPGKAPESLIYAASILQSGVPSKFSGSGSGTDFTLTISSLQPEDFATYYCQQYNTFPWTFGQGTKVEIK
> 10000 pM
Control II (motavizumab sequence) (antibody, V domains shown) VH: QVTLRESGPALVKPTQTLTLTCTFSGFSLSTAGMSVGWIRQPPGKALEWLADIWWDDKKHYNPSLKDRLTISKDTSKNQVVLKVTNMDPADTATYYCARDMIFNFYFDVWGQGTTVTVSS VL: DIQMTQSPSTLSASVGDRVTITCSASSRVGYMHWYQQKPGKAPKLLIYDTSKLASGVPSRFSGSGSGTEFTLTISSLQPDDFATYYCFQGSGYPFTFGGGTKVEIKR
50 pM
H1H3566P (antibody, V domains shown) VH: QVQLVESGGGVVQPGRSLRLSCAASGFTFSSYGMHWVRQAPGKGLEWVVFLWYDGSNKHYADSVKGRFTISRDNSKNTLYLQMNSLRAEDTAVYYCARSGLASYYYYSMDVWGQGTTVTVSS VL: DIQMTQSPSSLSASVGDRVTITCRASQGIRNDLAWYQQKPGKAPKRLIYGASSLHSGVPSRFSGSGSGTEFTLTISSLQPEDFATYSCLQHNSYPWTFGQGTKVEIK
> 10000 pM
H1H3565P (antibody, V domains shown) VH: QVQLVESGGGVVQPGRSLRLSCAASGFTFNSYGMHWVRQAPGKGLEWVTFIWSDGSNKYYLDSVKGRFTISRDNSKNTLYLQMNSLRAEDTAVYYCARSGLASYYYYGMDVWGQGTTVTVSS VL: DIQMTQSPSSLSASVGDRVTITCRASQGIRNDLGWYQQKPGKAPKRLIYGASSLQSGVPSRFSGSGSGTEFTLTISSLQPEDFATYSCLQHNSYPWTFGQGTKVEIK
> 10000 pM

Request: Query IC50 [pM] for RSV A2 Neutralization, Trial 1 for H1H3564P (antibody, V domains shown) VH: QVQLVQSGAEVKKPGSSVKVSCKASGGTLSNNAFSWVRQAPGQGLEWLGGFNPIFDTANYAQKFQGRITITLDASTGTVYMELSSLRSEDTGVYYCAGTGAHFEFWGQGTLVTVSS VL: DIQMTQSPSSLSASVGDRVTITCRTSQSISTYLNWYQQKPGKAPKFLIYAASTLQSGVPSRFSGSGSRTDFTLTISSLQPEDFATYYCQQSVSVPYTFGQGTKLEIK
Response: > 10000 pM

Entry source: patent US20140271653A1
